These data points were gathered from patent US20250270319A1.

Reported Relative maximal binding (cyno/human) values follow for various binders
target-entity: T1, recombinant cynomolgus CD33 protein (NovoProtein) (cynomolgus)
T1 construct: Bought protein; also called cyno CD33
T1 sequence (chain, as listed by the source limits assumed): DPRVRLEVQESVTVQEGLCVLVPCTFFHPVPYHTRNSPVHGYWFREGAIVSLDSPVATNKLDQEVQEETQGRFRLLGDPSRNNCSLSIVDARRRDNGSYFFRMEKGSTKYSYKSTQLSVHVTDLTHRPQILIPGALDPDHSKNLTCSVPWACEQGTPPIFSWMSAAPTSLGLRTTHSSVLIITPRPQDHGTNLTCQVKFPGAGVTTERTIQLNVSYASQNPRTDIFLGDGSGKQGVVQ
protocol: ELISA, plate coated with recombinant CD33
// response body must contain only the number

anti-CD33 antibody 6C7H50 (antibody, V domains shown, VH/VL only) VH: EVQLVESGGGLVQPGGSLRLSCAASGFTFSEYDMLWVRQAPGKGLEWVGEIRLKSNNYVTNYAASVKGRFTISRDDSKNSVYLQMNSLKTEDTGVYYCTRAGYYVPFAYWGQGTLVTVSS VL: QLMLTQSPSASASLGASVKLTCTLSSQHSTYTIEWYQQQPGKGPRYLMELKKEGSHSTGDGIPDRFSGSSSGAERYLTISSLQSEDEADYYCGVGHTIKEQFVYVFGGGTKLTVL
0.21
anti-CD33 antibody 6C7H36 (antibody, V domains shown, VH/VL only) VH: EVQLVESGGGLVQPGGSLRLSCAASGFTFSEYAMLWVRQAPGKGLEWVGEIRLKSNNYVTNYAASVKGRFTISRDDSKNSVYLQMNSLKTEDTGVYYCTRAGYYVPFTYWGQGTLVTVSS VL: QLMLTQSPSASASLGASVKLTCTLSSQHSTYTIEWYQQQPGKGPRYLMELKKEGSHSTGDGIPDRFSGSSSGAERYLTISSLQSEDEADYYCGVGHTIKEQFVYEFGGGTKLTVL
0.34

Continue with the next binder.
Would you kindly share the measured Relative maximal binding (cyno/human) for anti-CD33 antibody 6C7H43 (antibody, V domains shown, VH/VL only) VH: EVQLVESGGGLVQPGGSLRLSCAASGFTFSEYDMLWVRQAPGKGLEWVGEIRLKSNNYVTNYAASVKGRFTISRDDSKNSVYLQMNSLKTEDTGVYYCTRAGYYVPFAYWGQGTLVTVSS VL: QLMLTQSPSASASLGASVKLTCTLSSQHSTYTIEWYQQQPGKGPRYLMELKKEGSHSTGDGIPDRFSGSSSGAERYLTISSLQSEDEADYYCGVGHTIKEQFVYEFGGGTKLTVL ?
0.11
